Molecular target: T1, Ala mutant of TA0096, SEQ ID NO: 33
T1 peptide: EENMDDAWMQDEMEIGY
Test: ELISA, coated peptide
MEASUREMENT LABEL: OD 490/630 nm
Quick one: just the number, no unit, thanks!

Lab note: measured OD 490/630 nm of E9 (antibody, V domains shown, Chicken variable regions in a mouse chimeric antibody (IgG1); also called anti-PAD4 antibody E9) VH: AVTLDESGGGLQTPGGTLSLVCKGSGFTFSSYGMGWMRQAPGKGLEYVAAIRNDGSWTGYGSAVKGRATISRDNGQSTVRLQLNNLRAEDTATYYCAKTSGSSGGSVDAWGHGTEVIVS VL: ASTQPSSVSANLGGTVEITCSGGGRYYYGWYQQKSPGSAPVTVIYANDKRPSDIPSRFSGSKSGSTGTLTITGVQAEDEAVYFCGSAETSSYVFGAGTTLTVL was 1.93

Lab note: measured OD 490/630 nm of G6 (antibody, V domains shown, Chicken variable regions in a mouse chimeric antibody (IgG1); also called anti-PAD4 antibody G6) VH: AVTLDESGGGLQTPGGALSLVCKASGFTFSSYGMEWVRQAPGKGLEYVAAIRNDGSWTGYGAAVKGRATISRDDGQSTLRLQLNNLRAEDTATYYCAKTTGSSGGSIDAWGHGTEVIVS VL: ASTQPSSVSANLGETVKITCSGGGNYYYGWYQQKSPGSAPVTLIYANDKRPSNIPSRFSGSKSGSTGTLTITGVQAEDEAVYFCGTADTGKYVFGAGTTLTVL was 1.98

Lab note: measured OD 490/630 nm of G8 (antibody, V domains shown, Chicken variable regions in a mouse chimeric antibody (IgG1); also called anti-PAD4 antibody G8) VH: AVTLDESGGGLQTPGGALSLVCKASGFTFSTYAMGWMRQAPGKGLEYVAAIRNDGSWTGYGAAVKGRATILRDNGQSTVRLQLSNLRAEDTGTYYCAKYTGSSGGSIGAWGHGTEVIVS VL: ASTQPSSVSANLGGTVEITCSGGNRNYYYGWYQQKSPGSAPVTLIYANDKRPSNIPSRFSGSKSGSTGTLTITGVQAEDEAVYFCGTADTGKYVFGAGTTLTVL was 1.98

Lab note: measured OD 490/630 nm of H7 (antibody, V domains shown, Chicken variable regions in a mouse chimeric antibody (IgG1); also called anti-PAD4 antibody H7) VH: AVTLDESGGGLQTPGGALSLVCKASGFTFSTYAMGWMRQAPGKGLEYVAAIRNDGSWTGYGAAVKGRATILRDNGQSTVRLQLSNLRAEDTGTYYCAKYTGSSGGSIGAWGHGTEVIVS VL: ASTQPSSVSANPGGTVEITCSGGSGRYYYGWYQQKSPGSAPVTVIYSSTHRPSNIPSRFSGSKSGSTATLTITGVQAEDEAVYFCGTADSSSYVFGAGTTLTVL was 1.87
